biological target: DNA topoisomerase II (Homo sapiens, UniProt P11388+Q02880); experiment: Inhibitory activity in a cell-free assay of DNA cleavage mediated by purified HeLa cell topoisomerase II.; conditions: read-out: EC50
PROPERTY: pEC50
One number for each entry, as −log10 of the molar value.

input: # pEC50 lookup, item "Cc1cc(-c2c(F)cc3c4nn(-c5ccccc5)c(=O)c-4cn(C4CC4)c3c2F)cc(C)n1"
output: 5.57

* * *

target: DNA topoisomerase II (Homo sapiens, UniProt P11388+Q02880); assay: Inhibitory activity in a cell-free assay of DNA cleavage mediated by purified HeLa cell topoisomerase II.
PROPERTY: log10 of EC50 (log10 of the value in µM)
Please be aware that the numbers have been log10-transformed from EC50 in µM.

- CN/N=c1\ccn(C2CC2)c2c(F)c(-c3cc(C)nc(C)c3)c(F)cc12: 0.28
- Cc1cc(-c2c(F)cc3/c(=N/NC(N)=O)ccn(C4CC4)c3c2F)cc(C)n1: 0.49
- CO/N=c1/ccn(C2CC2)c2c(F)c(-c3cc(C)nc(C)c3)c(F)cc12: 0.41
- Cc1cc(-c2c(F)cc3/c(=N/Nc4c5ccccc5nc5ccccc45)ccn(C4CC4)c3c2F)cc(C)n1: 1.32
- Cc1cc(-c2c(F)cc3/c(=N/CCCN(C)C)ccn(C4CC4)c3c2F)cc(C)n1: 0.74

With those in mind, consider the next compound.
input: // log10 of EC50 lookup, key: "CCOC(=O)/C(C#N)=C1\C=CN(C2CC2)c2c1cc(F)c(-c1cc(C)nc(C)c1)c2F"
output: 0.68
